pIC50: −log10 of the molar value.
// cross-study collection: pIC50 for Arginase-1 (Homo sapiens, UniProt P05089)

Exercise: Give Arginase-1 (Homo sapiens, UniProt P05089) pIC50 for the following compound: NC(CCCCB(O)O)(C(=O)O)[C@@H]1CC[C@H](NCc2ccc(-c3ccccc3)cc2)C1 (some centres unmarked)
Key: 7.00 to 7.59

Exercise: Recall the reported pIC50 of NC(CCCCB(O)O)(C(=O)O)[C@H]1C[C@@H](NCc2c3ccccc3cc3ccccc23)C1 (some centres unmarked) when tested on Arginase-1 (Homo sapiens, UniProt P05089).
Key: 7.00 to 7.59

Exercise: Answer with pIC50 of NC(CCCCB(O)O)(C(=O)O)[C@H]1C[C@@H](NCc2ccc(C3CCCCC3)cc2)C1 (some centres unmarked) measured for Arginase-1 (Homo sapiens, UniProt P05089).
Key: 7.60 to 10.00

# batch size: 5; output pIC50 per entry
1. CC(C)C[C@H](N)C(=O)N[C@H]1CN[C@H](C(=O)O)[C@@H]1CCCB(O)O
2. CC(C)(C)[C@H](N)C(=O)N[C@H]1CN[C@H](C(=O)O)[C@@H]1CCCB(O)O
3. O=C(N[C@H]1CN[C@H](C(=O)O)[C@@H]1CCCB(O)O)[C@@H]1CCCN1
4. NC[C@H]1C[C@H](CCCB(O)O)[C@](N)(C(=O)O)C1 (racemic)
5. NC1CCCCC1N1C[C@H](CCCB(O)O)[C@](N)(C(=O)O)C1 (some centres unmarked)

Key:
8.80
9.09
7.89
6.00 to 6.60
6.60 to 10.00

* * *

Record: compiled IC50 on Arginase-1 (Homo sapiens) from multiple reports.

Below: 8 molecules and their reported IC50.
Exercise: Given O=C(O)[C@@H]1NCCC[C@H]1CCCB(O)O , respond with its IC50.
Key: 83300 nM

Exercise: Quote IC50 reported for CNC(CCCCB(O)O)(CCN1CCC(c2ccccc2)CC1)C(=O)O (stereo not drawn) please.
Key: 101 to 500 nM

Exercise: Note down IC50 recorded for CC(C)(O)[C@H](N)C(=O)N[C@H]1CN[C@H](C(=O)O)[C@@H]1CCCB(O)O
Key: 10.2 nM

Exercise: Look up IC50 of CC(C)(O)[C@@]1(CCCB(O)O)CN[C@@H]1C(=O)O and report it.
Key: 343 nM

Exercise: For the molecule CN1CCCCC1CN1C[C@H](CCCB(O)O)[C@](N)(C(=O)O)C1 (stereo partly drawn) , give its reported IC50.
Key: 0.1 to 250 nM

Exercise: Check the records and state IC50 for NC(CCCCB(O)O)(C(=O)O)[C@H]1C[C@@H](NCc2ccc(-c3ccc(Cl)cc3)cc2F)C1 (stereo partly drawn)
Key: 0.1 to 25 nM

Exercise: Give the value of IC50 reported for the following: NC(CCCCB(O)O)(C(=O)O)[C@H]1C[C@@H](NCc2ccc(-c3ccc(F)cc3)c(F)c2)C1 (mixture of isomers)
Key: 0.1 to 25 nM

Exercise: Supply reported IC50 belonging to this molecule: NC(CCCCB(O)O)(C(=O)O)[C@H]1C[C@@H](NCc2cccc(-c3ccc(C(F)(F)F)cc3)c2)C1 (stereo partly drawn)
Key: 0.1 to 25 nM

Below are some molecules; for each one, tell me its IC50.
1. NC(CCCCB(O)O)(C(=O)O)[C@H]1C[C@@H](NC2CCC(c3ccccc3)CC2)C1 (mixture of isomers)
2. O=C(O)[C@H]1NC[C@H](N2CCCC2)[C@H]1CCCB(O)O
3. N[C@@]1(C(=O)O)C[C@@H](CNC2CCc3ccccc3C2)C[C@@H]1CCCB(O)O (stereo partly drawn)
4. NC(CCCCB(O)O)(C(=O)O)[C@H]1C[C@@H](NCc2ccc(-c3ccc(F)cc3F)c(F)c2)C1 (mixture of isomers)
5. CC1CC(CCCB(O)O)[C@@H](C(=O)O)N1 (stereo partly drawn)
6. N[C@@]1(C(=O)O)CN(Cc2c[nH]cn2)C[C@@H]1CCCB(O)O

Key:
["26 to 100 nM", "522 nM", "26 to 100 nM", "26 to 100 nM", "> 10000 nM", "0.1 to 250 nM"]

Below are 4 molecules. Give each one its IC50.
1. N[C@@]1(C(=O)O)CN(Cc2ccccn2)C[C@@H]1CCCB(O)O
2. O=C(O)[C@@]1(CCN2CCC2)NCC[C@H]1CCCB(O)O
3. CN(C)CC[C@]1(C(=O)O)NCC[C@H]1CCCB(O)O
4. O=C(O)[C@H]1NC[C@@]1(CO)CCCB(O)O

Key:
1000 to 2000 nM
20.8 nM
31.5 nM
13 nM

* * *

Kindly find below pIC50 information for Arginase-1 (Homo sapiens) taken from the literature.
pIC50: −log10 of the molar value.

Below, each entry is followed by its recorded pIC50 result.
Exercise: Report pIC50 for NC(CCCCB(O)O)(C(=O)O)[C@H]1C[C@@H](NCc2ccc(-c3ccc(Cl)cc3)cc2)C1 (stereo partly drawn)
Key: 7.60 to 10.00

Exercise: Return pIC50 for the following compound: N[C@](CCCCB(O)O)(CCNC1Cc2ccccc2C1)C(=O)O
Key: 6.30 to 7.00

Exercise: Provide measured pIC50 value, entry: N[C@@]1(C(=O)O)CCO[C@@H]1CCCB(O)O
Key: 5.70 to 6.00

Exercise: Assign pIC50 to the following record: NC(CCCCB(O)O)(CCCN1CCc2ccccc2C1)C(=O)O (stereo not drawn)
Key: 6.30 to 7.00

Working through the 2 compounds below one at a time, give pIC50 for each.
1. CN[C@@]1(C(=O)O)CCC[C@@H]1CCCB(O)O
2. CC(C)[C@](C)(N)C(=O)N[C@H]1CN[C@H](C(=O)O)[C@@H]1CCCB(O)O

Key:
["5.82 to 6.30", 7.54]

* * *

Multiple publications report IC50 for Arginase-1 (Homo sapiens, UniProt P05089); what follows is a combined list.

Examples with answers:
Exercise: Give recorded IC50. NC(CCCCB(O)O)(C(=O)O)[C@H]1C[C@@H](NCc2ccc(Cc3ccccc3)cc2)C1 (mixture of isomers)
Key: 26 to 100 nM

Exercise: Provide measured IC50 value, entry: NC(CCCCB(O)O)(C(=O)O)[C@H]1C[C@@H](NCCc2ccc(Cl)cc2Cl)C1 (stereo partly drawn)
Key: 26 to 100 nM

Exercise: Indicate its recorded IC50; the compound in question is CNC(Cc1ccccc1)C(=O)N1C[C@H](CCCB(O)O)[C@](N)(C(=O)O)C1 (stereo partly drawn)
Key: 1000 to 2000 nM

Exercise: State its IC50 for this compound: CC(C)NCC[C@](N)(CCCCB(O)O)C(=O)O
Key: 26 to 100 nM

Exercise: Give recorded IC50. NC(CCCCB(O)O)(C(=O)O)[C@H]1C[C@@H](N(Cc2ccccc2)Cc2ccccc2)C1 (stereo partly drawn)
Key: 101 to 500 nM

Exercise: Name the recorded IC50 of the item C[C@@]1(CCCB(O)O)CCN[C@@H]1C(=O)O in your answer.
Key: 16 nM

Exercise: Please supply the value of reported IC50 for the item N#C[C@@]1(CCCB(O)O)CCN[C@@H]1C(=O)O
Key: 13.4 nM

Exercise: Note IC50 for the compound shown: NC1(c2ccc(Cl)cc2)CC(C(N)(CCCCB(O)O)C(=O)O)C1 (stereo not drawn)
Key: 501 to 1500 nM

Next:
Exercise: # return recorded IC50 for input NC(CCCCB(O)O)(C(=O)O)[C@H]1CC[C@H](NCc2ccc(-c3ccccc3)cc2)C1 (stereo in doubt)
Key: 26 to 100 nM

* * *

Here is a set of molecules with reported IC50 for Arginase-1 (Homo sapiens), compiled from the literature.

Past entries and their recorded results:
Exercise: Please supply the value of reported IC50 for the item O=C(O)[C@H]1NCC[C@]1(CCCB(O)O)C(F)F
Key: 28.9 nM

Exercise: Output IC50 of CNC[C@H]1CN[C@H](C(=O)O)[C@]1(C)CCCB(O)O
Key: 66.3 nM

Exercise: Return the recorded IC50 value; entry: CNC(CCCCB(O)O)(CCN1CCC(C)CC1)C(=O)O (stereo not drawn)
Key: 101 to 500 nM

Exercise: Dear colleague, please send me the reported IC50 for NC(CCCCB(O)O)(C(=O)O)C1CC2CCC(C1)N2Cc1ccc(OC(F)(F)F)cc1 (stereo not drawn) when you can.
Key: 26 to 100 nM

Exercise: Return the recorded IC50 value; entry: CNC(CCCCB(O)O)(CCNCc1ccc(Cl)c(Cl)c1)C(=O)O (stereo not drawn)
Key: 101 to 500 nM

Exercise: # return recorded IC50 for entry CN[C@H](C(=O)N[C@H]1CN[C@H](C(=O)O)[C@@H]1CCCB(O)O)C(C)C
Key: 2.98 nM

Exercise: Dear colleague, please send me the reported IC50 for O=C(O)C1(CCN2CCCCC2)CC(CCB(O)O)CCN1 (stereo not drawn) when you can.
Key: 1330 nM

Exercise: Let me know recorded IC50 for N[C@@]1(C(=O)O)CN(c2cncc(C(=O)O)c2)C[C@@H]1CCCB(O)O , thanks.
Key: 251 to 1000 nM

// each listed molecule needs a value for IC50
1. NC1(C(=O)O)CCSC1CCCB(O)O (stereo not drawn)
2. N[C@@]1(C(=O)O)CN(C2CCCNC2)C[C@@H]1CCCB(O)O (stereo partly drawn)
3. NC(CCCCB(O)O)(CCCN1CCc2c(Cl)cccc2C1)C(=O)O (stereo not drawn)
4. CC(C)CN1C[C@H](CCCB(O)O)[C@](N)(C(=O)O)C1
5. NC(CCCCB(O)O)(C(=O)O)[C@H]1C[C@@H](NCc2ccc(-c3ccc(Cl)cc3)c(F)c2F)C1 (mixture of isomers)
6. NC(CCCCB(O)O)(CCCN1Cc2ccccc2C1)C(=O)O (stereo not drawn)

Key:
1000 to 2000 nM
0.1 to 250 nM
26 to 100 nM
251 to 1000 nM
0.1 to 25 nM
26 to 100 nM
